- assay target: Muscarinic acetylcholine receptor M3 (Homo sapiens, UniProt P20309)
- Sequence (P20309 whole entry): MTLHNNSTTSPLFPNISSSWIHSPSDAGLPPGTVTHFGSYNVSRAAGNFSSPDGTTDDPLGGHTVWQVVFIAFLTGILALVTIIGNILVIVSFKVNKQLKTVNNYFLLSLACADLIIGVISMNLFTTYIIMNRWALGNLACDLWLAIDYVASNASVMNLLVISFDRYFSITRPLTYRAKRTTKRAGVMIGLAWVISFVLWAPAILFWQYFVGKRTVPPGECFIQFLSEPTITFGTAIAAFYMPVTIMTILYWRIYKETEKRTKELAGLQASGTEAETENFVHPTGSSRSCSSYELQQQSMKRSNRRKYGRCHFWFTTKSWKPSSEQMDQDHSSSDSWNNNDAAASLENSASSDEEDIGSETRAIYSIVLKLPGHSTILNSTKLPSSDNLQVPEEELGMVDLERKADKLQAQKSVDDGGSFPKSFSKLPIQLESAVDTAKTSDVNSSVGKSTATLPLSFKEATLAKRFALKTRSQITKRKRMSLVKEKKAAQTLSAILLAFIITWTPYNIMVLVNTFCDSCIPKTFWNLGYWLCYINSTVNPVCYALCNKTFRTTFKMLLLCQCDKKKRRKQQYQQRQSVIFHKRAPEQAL
- assay explanation: Antagonist potency at human muscarinic acetylcholine M3 receptor expressed in CHO cells assessed as inhibition of Ach-induced calcium mobilization by FLIPR analysis relative to control
# Kd per entry
Answer with a number only, understood to be in nM.

CC[N+]1(C)C2CCC1CC(CC(C#N)(c1ccccc1)c1ccccc1)C2 (stereo not given)	0.0501
COCC[N+]1(C)C2CCC1CC(CC(C#N)(c1ccccc1)c1ccccc1)C2 (stereo not given)	0.501
C[N+]1(CCCC#N)C2CCC1CC(CC(C#N)(c1ccccc1)c1ccccc1)C2 (stereo not given)	0.158
COCCOCC[N+]1(C)C2CCC1CC(CC(C#N)(c1ccccc1)c1ccccc1)C2 (stereo not given)	0.631

Would you kindly look at the next entry?
Request: Fill in the blank: the reported Kd of CCC[N+]1(C)C2CCC1CC(CC(C#N)(c1ccccc1)c1ccccc1)C2 (stereo not given) is ____.
Result: 0.0501
